Listed compounds paired with reported IC50
- tested_on: Bcl-2 protein (histag-Bcl-2, UniProtKB P10415) (Homo sapiens (Human), UniProt P10415)
- Sequence (P10415 whole entry): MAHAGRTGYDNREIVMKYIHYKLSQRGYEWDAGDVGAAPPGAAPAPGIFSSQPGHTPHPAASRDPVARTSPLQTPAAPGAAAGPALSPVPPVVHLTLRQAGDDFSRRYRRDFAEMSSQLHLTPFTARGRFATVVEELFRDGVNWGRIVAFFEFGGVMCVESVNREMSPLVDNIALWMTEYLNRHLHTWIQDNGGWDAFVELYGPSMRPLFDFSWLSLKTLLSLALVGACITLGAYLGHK
- protocol: Inhibition of Bcl-2 by the fluorescence polarisation technique
- Type: binding
- condition_set: fluorescence polarisation test; method A, or method B where underlined (underlining not visible); read-out: IC50 (nM) Bcl-2 FP
Where a name gives a salt, the structure may show the parent alone.
Enter your answer as a number in nM; do not include the unit.

Please review the entries below; each comes with its answer.
[[record]]
compound = "Cc1cc(C(=O)N(c2ccc(O)cc2)c2ccc3c(ccn3C)c2)cn1-c1cc2c(cc1C(=O)N1Cc3ccccc3C[C@H]1CN(C)C)OCO2 [Example 94, hydrochloride]"
tested_on = "Bcl-2 protein (histag-Bcl-2, UniProtKB P10415) (Homo sapiens (Human), UniProt P10415)"
experimental_readout = "IC50"
endpoint_value = 7.9

[[record]]
compound = "CN(C)C[C@@H]1Cc2ccccc2CN1C(=O)c1ccc(Cl)cc1-n1cc(C(=O)N(c2ccccc2)c2ccc(O)cc2)c2ccccc21 [Example 179, hydrochloride]"
tested_on = "Bcl-2 protein (histag-Bcl-2, UniProtKB P10415) (Homo sapiens (Human), UniProt P10415)"
experimental_readout = "IC50"
endpoint_value = 18.1


Turning now to a further record.
(Q) What does the data say about its IC50? Entry: O=C(c1cn(-c2cc3c(cc2C(=O)N2Cc4ccccc4C[C@H]2CN2CCCCC2)OCO3)c2ccccc12)N(c1ccccc1)c1ccc(O)cc1
(A) 41.2

* * *

- System: RS4;11 leukaemia tumour line
- protocol: In vitro cytotoxicity, Microculture Tetrazolium Assay (MTT)
- Type: cell-based
- condition_set: Homo sapiens; RS4;11 cells, 48 hours exposure
- Procedure: The cytotoxicity studies were carried out on the RS4;11 leukaemia tumour line. The cells are distributed onto microplates and exposed to the test compounds for 48 hours. The cell viability is then quantified by a colorimetric assay, the Microculture Tetrazolium Assay (Cancer Res., 1987, 47, 939-942).
Structures can show the parent of a compound that is named as a salt.
Binary call on IC50 with cut-off 400 nM: strictly below means yes (1), and equality or higher means no (0).

A selection of reference data follows.
[[record]]
compound = "CN1CCN(C[C@@H]2Cc3ccccc3CN2C(=O)c2ccc(Br)cc2-n2cc(C(=O)N(c3ccc(O)cc3)c3ccc4c(ccn4C)c3)c3ccccc32)CC1 [Example 69, hydrochloride]"
tested_on = "RS4;11 leukaemia tumour line"
assigned_label = "yes (1)"

[[record]]
compound = "Cc1cc(C(=O)N(c2ccc(O)cc2)c2ccc(O)cc2)cn1-c1cc2c(cc1C(=O)N1Cc3ccccc3C[C@H]1CN1CCN(C)CC1)OCO2"
tested_on = "RS4;11 leukaemia tumour line"
assigned_label = "yes (1)"

[[record]]
compound = "NC[C@@H]1Cc2ccccc2CN1C(=O)c1ccccc1-n1nc(C(=O)N(c2ccccc2)c2ccc(O)cc2)c2ccccc21"
tested_on = "RS4;11 leukaemia tumour line"
assigned_label = "no (0)"

[[record]]
compound = "Cc1cc(C(=O)N(c2ccc(O)cc2)c2ccc3[nH]ccc3c2)cn1-c1cc(Br)ccc1C(=O)N1Cc2ccccc2C[C@H]1CN1CCCC1"
tested_on = "RS4;11 leukaemia tumour line"
assigned_label = "yes (1)"

[[record]]
compound = "Cc1cc(C(=O)N(c2ccccc2)c2ccc(O)cc2)cn1-c1cc(F)ccc1C(=O)N1Cc2ccccc2C[C@H]1CN(C)C"
tested_on = "RS4;11 leukaemia tumour line"
assigned_label = "no (0)"

[[record]]
compound = "Cc1cc(C(=O)N(c2ccccc2)c2ccc(O)cc2)cn1-c1cc(Cl)ccc1C(=O)N1Cc2ccccc2C[C@H]1CN1CCN(C)CC1"
tested_on = "RS4;11 leukaemia tumour line"
assigned_label = "yes (1)"

[[record]]
compound = "COc1cc(-n2cc(C(=O)N(c3ccccc3)C3CCCCC3)c3ccccc32)c(C(=O)N2Cc3ccccc3C[C@H]2CN2CCN(C)CC2)cc1O [Example 187, dihydrochloride]"
tested_on = "RS4;11 leukaemia tumour line"
assigned_label = "no (0)"

[[record]]
compound = "Cc1cc(C(=O)N(c2ccc(O)cc2)c2ccc(F)cc2)cn1-c1cc(Br)ccc1C(=O)N1Cc2ccccc2C[C@H]1CN1CCN(C)CC1"
tested_on = "RS4;11 leukaemia tumour line"
assigned_label = "yes (1)"

[[record]]
compound = "CN1CCN(C[C@@H]2Cc3ccccc3CN2C(=O)c2cc3c(cc2-n2cc(C(=O)N(c4ccc(O)cc4)c4ccc(Cl)cc4)c4ccccc42)OCO3)CC1"
tested_on = "RS4;11 leukaemia tumour line"
assigned_label = "yes (1)"

[[record]]
compound = "Cc1ccc(N(C(=O)c2cc(C)n(-c3cc(Cl)ccc3C(=O)N3Cc4ccccc4C[C@H]3CN3CCN(C)CC3)c2)c2ccc(O)cc2)cc1"
tested_on = "RS4;11 leukaemia tumour line"
assigned_label = "yes (1)"


(Q) I wonder whether CCC1COc2cc(-n3cc(C(=O)N(c4ccccc4)c4ccc(O)cc4)c4ccccc43)c(C(=O)N3Cc4ccccc4C[C@H]3CN3CCN(C)CC3)cc2O1 (stereo partly drawn) has IC50 below 400 nM. Can you tell?
(A) no (0)

(Q) Also Cc1cc(C(=O)N(c2ccc(O)cc2)c2ccc(Cl)cc2)cn1-c1cc(Cl)ccc1C(=O)N1Cc2ccccc2C[C@H]1CN1CCN(C)CC1 , if possible.
(A) yes (1)
